assay: inhibition of 3D7 malaria parasite growth – strain 3D7 (AID 2306);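 also: 0% = DMSO wells and 100% = chloroquine plus artemisinin control wells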; settings: P. falciparum 3D7 erythrocytic growth, LDH absorbance, 72 h; at 2 µM; stronger effect = higher value
Activity calls are given as the source filed them. No rule for the calls is given here.
Measured Property: growth inhibition

Recorded growth inhibition, per entry:
CCOc1cc(C(=O)Nc2ccc3nc(N(CC)CC)cc(C)c3c2)cc(OCC)c1OCC 98% (active)
COc1ccc2nccc([C@@H](O)CN3CCC(NCc4cc5ccccc5[nH]4)CC3)c2n1 101% (active)
N#Cc1ccc(CN2CCCN(c3ccc(NC(=O)c4ccc(F)cc4)cc3)CC2)cc1 90% (active)

Could you tell me which growth inhibition is on file for O=C(CCc1cnc[nH]1)Nc1cccc(-c2ccc(-c3nc4ccc(F)cc4[nH]3)s2)c1 ?
101% (active)

* * *

assay: human hepatoma cell viability loss – ATP luminescence, cytotoxicity control for P. falciparum antimalarial project, primary screen (AID 2303); conditions: HepG2 viability, 24-48 h, at 10 µM;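 also: 0% = DMSO wells and 100% = digitonin-killed cells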
The source made the active and inactive calls.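 Rule for the calls: active = inhibition above 50%; inactive = the rest.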
Give one outcome, nothing more. List: active, inactive

Some solved cases for reference:
Compound	Qualitative Label
NC(=O)c1cccc(C(=O)Nc2cccc(-c3ccc(-c4nc5ccc(C(F)(F)F)cc5[nH]4)cc3)c2)c1	active
O=C(Nc1ccc(OC(F)(F)F)cc1)NC1CCN(c2ccnc3ccccc23)C1 (stereo not given)	inactive
O=c1cc(NCCCCNCc2ccc(Br)c(Br)c2)[nH]c2ccccc12	inactive

Status in this test for CC1(C)N=C(N)N=C(N)C1c1ccc(Cl)c(Cl)c1 (stereo not given) ?
inactive

Please do the same for CN1CCN(Cc2nc(-c3ccc4c(Nc5ccc(Oc6ccccc6)cc5)ccnc4c3)cs2)CC1 as well.
inactive

* * *

target: Calcium-dependent protein kinase 4 (Plasmodium falciparum (isolate 3D7)); experiment: PfCDPK4 kinase inhibitors, biochemical, TCAMS library (AID 1159588); conditions: recombinant PfCDPK4, Kinase-Glo ATP depletion luminescence
Measured potencies and affinities stand elsewhere. Activity calls are given as the source filed them. The limit is not given here; nearly all actives have IC50 up to about 0.91 µM.
Measured Property: outcome

Molecule	Test Result
Nc1cccc(CNCc2cccc(-c3cccc(-c4nc5ccc(C(F)(F)F)cc5[nH]4)c3)c2)c1	inactive
C[C@@H](COc1ccc(-c2ccccc2)cc1)CON1C(N)=NC(N)=NC1(C)C	inactive
Cc1ccc(Cc2c(N)nc3nc(N)nc(N)c3c2C)cc1	inactive
CN1CCN(c2ccc(-c3nc4c(C(N)=O)c(OCc5cc(Cl)cc(Cl)c5)ccc4[nH]3)cc2)CC1	inactive

# evaluate next
Notebook entry, Calcium-dependent protein kinase 4 (Plasmodium falciparum (isolate 3D7)) assay: outcome of C[C@H]1CN(Cc2cccc(-c3cc(CNC(=O)c4cccc(CC5CCN(C)CC5)c4)ccc3F)c2)CCN1C = ?
inactive

* * *

target: L-lactate dehydrogenase (Plasmodium falciparum (isolate CDC / Honduras)) (UniProt Q27743); assay: PfLDH activity inhibition – cell lysate, 3D7 strain, counter-screen for P. falciparum growth inhibition project (AID 2304);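 also: 0% = vehicle and 100% = reference inhibitor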; conditions: P. falciparum 3D7 crude extract, LDH APAD/NBT absorbance; at 2 µM; stronger effect = higher value
Sequence (Q27743 whole entry, looked up): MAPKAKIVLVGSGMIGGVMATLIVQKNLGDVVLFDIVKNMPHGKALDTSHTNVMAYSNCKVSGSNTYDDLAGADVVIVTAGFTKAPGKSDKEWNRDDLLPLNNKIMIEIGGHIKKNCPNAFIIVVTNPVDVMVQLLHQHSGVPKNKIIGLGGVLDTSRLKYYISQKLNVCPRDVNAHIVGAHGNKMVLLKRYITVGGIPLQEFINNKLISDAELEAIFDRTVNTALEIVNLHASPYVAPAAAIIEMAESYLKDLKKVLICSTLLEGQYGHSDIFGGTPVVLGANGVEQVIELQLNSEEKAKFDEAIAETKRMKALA
Measured Property: inhibition (%)
State the answer as a number, implicitly in %.

Compound	inhibition, %
OC1CCCN(Cc2cccc(-c3ccc(-c4nc5ccc(C(F)(F)F)cc5[nH]4)cc3)c2)C1 (centres undefined)	4
Cc1[nH]nc2cc(Nc3ccnc(Nc4cccc(CN5CCOCC5)c4)n3)ccc12	-8
CN(C)CCOc1ccc(-c2cc(-c3ccncc3)c(-c3ccc(Cl)c(O)c3)o2)cc1	-5
Cc1ccc(Cl)cc1N1CCN(CCCNC(=O)C2CCN(c3nc4ccccc4[nH]3)CC2)CC1	-1
Cc1noc(C)c1-c1ccc2c(Nc3ccccc3C(C)(C)C)c(C(=O)NCc3cccc4ccccc34)cnc2c1	-2

Could you tell me which inhibition is on file for CCN(CC)CCCC(C)Nc1ccnc2ccc(OC)cc12 (centres undefined) ?
-2

Please do the same for Cc1cc(=O)[nH]c2cc(Nc3ccnc(Nc4cccc(C(N)=O)c4)n3)ccc12 as well.
-4

Please do the same for COC(=O)c1cccc(NC(=O)NC2CCN(c3ccnc(NCc4ccc(F)cc4)n3)CC2)c1 as well.
5

* * *

Reported growth inhibition values for a set of compounds
assay: antimalarial activity against Dd2 strain (AID 2302);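 also: 0% = DMSO untreated growth and 100% = chloroquine plus artemisinin killed control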; details: P. falciparum Dd2 in RBCs, LDH growth readout, 72 h; at 2 µM; stronger effect = higher value
State the answer as a number, implicitly in %.

Recorded growth inhibition, per entry:
CC(=O)c1ccc(NC(=O)Nc2ccc(N(C)c3ccnc(NC4CC4)n3)cc2)cc1 60
COCCNCc1ccc(-c2ccc(CNC3CCN(Cc4ccccc4)CC3)cc2)cc1 61

# evaluate next
Could you tell me which growth inhibition is on file for CCn1cc(CN2C(=O)C(c3ccccc3)(c3ccccc3)N=C2N)cn1 ?
60

* * *

assay: human hepatoma cell viability loss – ATP luminescence, cytotoxicity control for P. falciparum antimalarial project, primary screen (AID 2303); details: HepG2 viability, 24-48 h, at 10 µM, stronger effect = higher value;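 also: 0% = DMSO wells and 100% = digitonin-killed cells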
Range-based classes on measured inhibition: lower band: < 10%; central band: ≥ 10% and < 30%; upper band: ≥ 30%

Compound	Qualitative Label
Clc1cccc(Cl)c1CCNCC1CCN(CC2CCCCC2)CC1	upper band

Hi there! Could you help me figure out the category for NC1CCN(Cc2cccc(-c3ccc(-c4nc5ccc(C(F)(F)F)cc5[nH]4)cc3)c2)C1 (stereo not drawn) please?
central band

Please do the same for CC(C)COc1cc(C(=O)Nc2cnc3ccccc3c2)ccc1[N+](=O)[O-] as well.
central band

Please do the same for CC1(C)N=C(N)N=C(N)N1O as well.
lower band

* * *

Reported inhibition values for a set of compounds
target: L-lactate dehydrogenase (Plasmodium falciparum (isolate CDC / Honduras)); experiment: PfLDH activity inhibition – cell lysate, 3D7 strain, counter-screen for P. falciparum growth inhibition project (AID 2304);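 also: 0% = vehicle and 100% = reference inhibitor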; details: P. falciparum 3D7 crude extract, LDH APAD/NBT absorbance; at 2 µM; stronger effect = higher value
State the answer as a number, implicitly in %.

Compound	Tested System	Measured Property	Test Result
CCc1ccc(CN2CCCCC(NC(=O)c3cc(-c4ccccc4F)cs3)C2)cc1 (stereo unspecified)	L-lactate dehydrogenase (Plasmodium falciparum (isolate CDC / Honduras))	inhibition	-4
Cc1cccc(C(=O)Nc2ccc(N3CCCN(Cc4cccc(O)c4)CC3)cc2)c1	L-lactate dehydrogenase (Plasmodium falciparum (isolate CDC / Honduras))	inhibition	-3
Cc1cc(O)c(CN(C)Cc2ccc(N(C)C)cc2)cc1C(C)C	L-lactate dehydrogenase (Plasmodium falciparum (isolate CDC / Honduras))	inhibition	-1
COc1cccc(C(=O)Nc2ccc(S(=O)(=O)c3cc4c(cc3OC)CCN(C)CC4)cc2)c1	L-lactate dehydrogenase (Plasmodium falciparum (isolate CDC / Honduras))	inhibition	-1
CCCCN1CCN(CCCCNc2c3ccccc3nc3ccccc23)CC1	L-lactate dehydrogenase (Plasmodium falciparum (isolate CDC / Honduras))	inhibition	4

# evaluate next
Could you tell me which inhibition is on file for c1cc(CNCCN2CCNCC2)cc(-c2ccc(-c3nc4ccccc4[nH]3)cc2)c1 ?
-3

* * *

assay: human hepatoma cell viability loss – ATP luminescence, cytotoxicity control for P. falciparum antimalarial project, primary screen (AID 2303); details: HepG2 viability, 24-48 h, at 10 µM;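 also: 0% = DMSO wells and 100% = digitonin-killed cells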
Active and inactive are the calls of the source.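 How the source made its calls: active means inhibition above 50%; inactive means the rest.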
Give one outcome, nothing more. List: active, inactive

Molecule	Qualitative Label
CNC(=O)Cc1ccc(C(=O)Nc2cccc(-c3cccc(-c4nc5ccc(C(F)(F)F)cc5[nH]4)c3)c2)cc1	inactive

Status in this test for CC1CN(c2cc(=O)n(Cc3ccc(NC(=O)Nc4ccc(-c5ccccc5)cc4)cc3)cn2)CC(C)N1 (centres undefined) ?
inactive

Please do the same for CC1(C)CCCN(Cc2c(O)ccc3c(=O)c(-c4nc5ccccc5s4)c(N)oc23)C1 as well.
inactive

Please do the same for COc1cccc(C(=O)Nc2ccc(Nc3nc(C)cc(N(C)C)n3)cc2)c1 as well.
inactive

Please do the same for O=[N+]([O-])c1ccc2nccnc2c1 as well.
inactive

Please do the same for CCOC(=O)CC[C@@H](NC(=O)c1ccc(NCc2ccc3ccc4nc(C)[nH]c(=O)c4c3c2)cc1F)C(=O)N[C@@H](Cc1c[nH]c2ccccc12)C(=O)OCC as well.
inactive

Please do the same for COc1ccc(CNC2Cc3ccccc3C2)cc1-c1ccc(S(=O)(=O)NCCN2CCCC2)c(F)c1 as well.
inactive

Please do the same for CCC(CCON1C(N)=NC(N)=NC1(C)C)c1ccc(Cl)cc1 (centres undefined) as well.
active

Please do the same for COc1ccc2c(NN=Cc3cccc(F)c3)ccnc2c1 as well.
inactive

* * *

assay: antimalarial activity against Dd2 strain (AID 2302);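 also: 0% = DMSO untreated growth and 100% = chloroquine plus artemisinin killed control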; details: P. falciparum Dd2 in RBCs, LDH growth readout, 72 h; at 2 µM
Calls of active or inactive are those of the source.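 How the source made its calls: active means growth inhibition above 50% at the single 2 µM test dose, taken to imply half-maximal potency below 2 µM; inactive means the rest.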
Give one outcome, nothing more. List: active, inactive

Compound	Qualitative Label
Cc1cc(N(C)CCCN(C)C)nc(Nc2ccc(Br)cc2)n1	active
CC(C)(C)c1ccc(O)c(CNC2CCCCC2)c1	active

Let's switch to this compound now.
Status in this test for CCN(CC)CCN(Cc1ccc(-c2ccc(C(F)(F)F)cc2)cc1)C(=O)Cn1c(CCc2cccc(F)c2F)cc(=O)c(C)c1C ?
active
